# Assay System: Guanine nucleotide-binding protein G(o) subunit alpha (Homo sapiens)
# Assay Name: retest of RGS7-Galphao interaction hits – biochemical, multiplexed bead flow cytometry, single concentration, confirmation (AID 1837);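 also: fluorescent Galphao activated with GDP and aluminum fluoride binding bead-coupled RGS7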
# Run Parameters: bead-based flow cytometry RGS7-Galphao binding; at 10 µM; actives lie on both sides
Some of the results follow. Activity calls are given as the source filed them. Rule as the data show it: active = response below about 75% or above about 130%; inactive = in between.
Permitted responses: y = active, n = inactive

Answered examples (5):
[
  {
    "Compound": "Cc1ncoc1C(=O)NCCC(c1ccccc1)c1ccccc1",
    "Answer Label": "n"
  },
  {
    "Compound": "CC(C)Cc1nc(Nc2ccc(S(=O)(=O)N3CCCC3)cc2)c2nnn(Cc3ccccc3)c2n1",
    "Answer Label": "n"
  },
  {
    "Compound": "Cc1ccc(-n2c(SCC(=O)Nc3ncc(Cl)cc3Cl)nc3ccccc32)cc1",
    "Answer Label": "n"
  },
  {
    "Compound": "O=C(OCC1O[C@@H](OC(=O)c2cc(O)c(O)c(O)c2)[C@@H](OC(=O)c2cc(O)c(O)c(O)c2)[C@@H](OC(=O)c2cc(O)c(O)c(O)c2)[C@@H]1OC(=O)c1cc(O)c(O)c(O)c1)c1cc(O)c(O)c(O)c1 (some centres not stated)",
    "Answer Label": "y"
  },
  {
    "Compound": "CCOC(=O)C1=C(c2ccccc2)N=C2SCC(=O)N2C1c1ccc(O)c(OC)c1 (configuration not stated)",
    "Answer Label": "n"
  }
]

INPUT: Give the logged outcome of this assay for the following compound: COc1cc(C2/C(=C(\O)c3ccc4c(c3)CC(C)O4)C(=O)C(=O)N2Cc2ccco2)ccc1O (configuration not stated)
OUTPUT: n

Measured values drawn from PubChem BioAssay for this set.
